test: qHTS assay to identify small molecule antagonists of the glucocorticoid receptor (GR) signaling pathway - cell viability counter screen (AID 720693); settings: GR-bla HeLa viability, CellTiter-Glo luminescence, 18 h, with 5 nM dexamethasone present; series mostly up to 58.5 µM; further: nearly all actives have a fitted effect of over 55% in size
Inconclusive results are not listed. Calls of active or inactive are those of the source. The call rests on the fitted dose curve; in most records, active means well fitted cell-killing curve with a large enough effect in the repeat runs; inconclusive means weak or mixed curves, or effect the other way; inactive means no such curve, though single readings can be large or run the other way.
Outcomes: active, inactive

molecule="CN1C2CCC1CC(OC(c1ccccc1)c1ccc(Cl)cc1)C2 (stereo not drawn)" label_class=active
molecule=C#C[C@]1(OC(=O)CCCCCC)CC[C@H]2[C@@H]3CCC4=CC(=O)CC[C@@H]4[C@H]3CC[C@@]21C label_class=active
molecule=CC[C@@H](O)C(C[C@@H](C)N(C)C)(c1ccccc1)c1ccccc1 label_class=inactive
molecule=Clc1ccc([C@@H]2C[C@H]3CC[C@@H]2N3)cn1 label_class=inactive
molecule=CN1CCN=C(c2ccccc2)c2cc(Cl)ccc21 label_class=inactive
molecule=COc1cc(C[C@H](C)N)c(OC)cc1Br label_class=inactive
molecule="CNC(C)[C@@H]1CC[C@@H](N)[C@@H](O[C@H]2[C@H](O)[C@@H](O[C@H]3OC[C@](C)(O)[C@H](NC)[C@H]3O)[C@H](N)C[C@@H]2N)O1 (stereo partly drawn)" label_class=inactive
molecule="CC(=O)O[C@H]1C[C@H](O[C@H]2[C@@H](O)C[C@H](O[C@H]3[C@@H](O)C[C@H](OC4CC[C@@]5(C)C(CC[C@@H]6[C@@H]5CC[C@]5(C)[C@@H](C7=CC(=O)OC7)[C@@H](O)C[C@]65O)C4)O[C@@H]3C)O[C@@H]2C)O[C@H](C)[C@H]1O[C@@H]1O[C@H](CO)[C@@H](O)[C@H](O)[C@H]1O (stereo partly drawn)" label_class=active

----------
biological target: Aryl hydrocarbon receptor (Homo sapiens) (UniProt P35869); test: qHTS assay to identify small molecule that activate the aryl hydrocarbon receptor (AhR) signaling pathway (AID 743085); details: HepG2 AhR-luc (HG2L7.5c1), luciferase, 24 h; series mostly up to 70.3 µM;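 further: HG2L7.5c1 human HepG2 liver cells with stably integrated DRE-driven firefly reporter; nearly all actives have a fitted effect of over 15% in size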
Sequence (P35869 whole entry, looked up): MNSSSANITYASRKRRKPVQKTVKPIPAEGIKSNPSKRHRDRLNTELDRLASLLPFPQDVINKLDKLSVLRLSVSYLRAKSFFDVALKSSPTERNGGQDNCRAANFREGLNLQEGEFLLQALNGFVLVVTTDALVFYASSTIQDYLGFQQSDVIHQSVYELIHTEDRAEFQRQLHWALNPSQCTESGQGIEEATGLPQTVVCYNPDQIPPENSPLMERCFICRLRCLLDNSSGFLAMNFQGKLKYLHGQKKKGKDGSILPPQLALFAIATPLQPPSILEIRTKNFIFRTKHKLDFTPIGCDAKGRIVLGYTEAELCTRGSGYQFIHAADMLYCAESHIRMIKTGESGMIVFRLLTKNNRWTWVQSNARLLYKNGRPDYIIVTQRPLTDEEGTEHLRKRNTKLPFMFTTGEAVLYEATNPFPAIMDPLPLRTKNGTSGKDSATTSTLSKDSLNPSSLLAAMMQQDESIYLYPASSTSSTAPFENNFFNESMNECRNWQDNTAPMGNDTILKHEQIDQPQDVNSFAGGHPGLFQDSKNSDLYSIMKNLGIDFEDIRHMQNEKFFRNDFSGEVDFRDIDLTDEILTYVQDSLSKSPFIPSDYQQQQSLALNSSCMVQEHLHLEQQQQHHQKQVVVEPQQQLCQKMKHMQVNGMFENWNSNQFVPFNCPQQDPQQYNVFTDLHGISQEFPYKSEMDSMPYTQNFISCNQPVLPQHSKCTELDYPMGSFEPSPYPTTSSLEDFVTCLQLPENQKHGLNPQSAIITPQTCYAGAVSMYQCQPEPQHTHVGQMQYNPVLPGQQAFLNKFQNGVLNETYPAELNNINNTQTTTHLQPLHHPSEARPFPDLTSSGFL
Inconclusive results are not listed. The source made the active and inactive calls. Calls come from the whole dose curve; as a rule, active = well fitted activation curve with a large enough effect in the repeat runs; inconclusive = weak or mixed curves; inactive = no such curve, though single readings can be large or run the other way.
endpoint: outcome

compound="CC[C@@]1([C@@H]2O[C@@H]([C@H]3O[C@@](O)(CO)[C@H](C)C[C@@H]3C)C[C@@H]2C)CC[C@H]([C@]2(C)CC[C@]3(C[C@H](O)[C@@H](C)[C@@H]([C@@H](C)[C@@H](OC)[C@H](C)C(=O)O)O3)O2)O1 (stereo in doubt)" tested_system="Aryl hydrocarbon receptor (Homo sapiens) (UniProt P35869)" recorded_measurement=inactive
compound=C1CCc2nnnn2CC1 tested_system="Aryl hydrocarbon receptor (Homo sapiens) (UniProt P35869)" recorded_measurement=inactive
compound=CC(=O)CC(C)C tested_system="Aryl hydrocarbon receptor (Homo sapiens) (UniProt P35869)" recorded_measurement=inactive
compound="CNC(C)[C@@H]1CC[C@@H](N)[C@@H](O[C@H]2[C@H](O)[C@@H](O[C@H]3OC[C@](C)(O)[C@H](NC)[C@H]3O)[C@H](N)C[C@@H]2N)O1 (stereo not given in full)" tested_system="Aryl hydrocarbon receptor (Homo sapiens) (UniProt P35869)" recorded_measurement=inactive
compound=O=[N+]([O-])O[C@@H]1CO[C@H]2[C@@H]1OC[C@@H]2O tested_system="Aryl hydrocarbon receptor (Homo sapiens) (UniProt P35869)" recorded_measurement=inactive

----------
assay: qHTS assay to test for compound auto fluorescence at 460 nm (blue) in HepG2 cell free culture (AID 720685); details: Cell-free culture medium, blue autofluorescence 405/460 nm; series mostly up to 46 µM
Calls of active or inactive are those of the source. Calls follow the shape of the dose curve; as a rule, active = well fitted curve in the direction sought with a large enough effect in the repeat runs; inconclusive = weak or mixed curves; inactive = flat fitted curve, though single readings scatter.
endpoint: outcome

compound=CCC(=O)O[C@](Cc1ccccc1)(c1ccccc1)[C@H](C)CN(C)C recorded_measurement=inactive
compound=COc1cc(C[C@H](C)N)c(OC)cc1Br recorded_measurement=inactive
compound=CCC(=O)O[C@H]1[C@@H](N2CCCCC2)C[C@H]2[C@@H]3CC[C@H]4C[C@H](OC(C)=O)[C@@H](N5CCCCC5)C[C@]4(C)[C@H]3CC[C@@]21C recorded_measurement=inactive
compound="CN1C2CCC1CC(OC(c1ccccc1)c1ccc(Cl)cc1)C2 (stereo not given)" recorded_measurement=inactive
compound=Cc1ccc2c(c1)[C@]13CCCC[C@@H]1[C@H](C2)N(C)CC3 recorded_measurement=inactive

----------
molecular target: Acetylcholinesterase (Homo sapiens); experiment: Acetylcholinesterase (AChE) small molecule antagonists: enzyme-based qHTS assay (AID 1347397); details: AChE enzyme activity inhibition; series mostly up to 115 µM; further: nearly all actives have a fitted effect of over 55% in size
Activity calls are given as the source filed them. The call rests on the fitted dose curve.
endpoint: outcome

molecule="CC(COc1ccccc1)NC(C)C(O)c1ccc(O)cc1 (stereo not drawn)" recorded_measurement=inactive
molecule=O=C1OC(=O)c2cc(Oc3ccc4c(c3)C(=O)OC4=O)ccc21 recorded_measurement=inactive
molecule=CN[C@H]1CC[C@@H](c2ccc(Cl)c(Cl)c2)c2ccc(S(N)(=O)=O)cc21 recorded_measurement=inactive

----------
target: Acetylcholinesterase (Homo sapiens); experiment: Acetylcholinesterase (AChE) small molecule antagonists: fluorescence cell-based qHTS assay (AID 1347398); details: SH-SY5Y cells; AChE activity; series mostly up to 115 µM; further: nearly all actives have a fitted effect of over 50% in size
Results filed as inconclusive are left out. Active and inactive are the calls of the source. The call rests on the fitted dose curve.
Outcomes: true (1) = active, false (0) = inactive

compound=COC(=O)c1cc(S(N)(=O)=O)ccc1OC label_class="false (0)"
compound=CCCCCCCCC(=O)Cl label_class="false (0)"
compound=CCCC=O label_class="false (0)"
compound=CCCC1CCC(=O)CC1 label_class="false (0)"
compound=Cc1ccc(N/N=c2\c(=O)cc/c(=N\Nc3ccc(S(=O)(=O)O)cc3)c2=O)c(C)c1 label_class="false (0)"
compound=OC(C#CCN1CCCC1)(c1ccccc1)c1ccccc1 label_class="false (0)"
compound=CC(C)(C)c1ccccc1 label_class="false (0)"
compound=NC(=O)c1ccccc1C(N)=O label_class="false (0)"
compound=CC(=O)OCC(=O)[C@@]1(O)[C@H](OC(C)=O)C[C@H]2[C@@H]3CCC4=CC(=O)C=C[C@]4(C)[C@@]3(F)[C@@H](O)C[C@@]21C label_class="false (0)"
compound=CCCCCCCCCCCCCCCS(=O)(=O)Oc1ccccc1 label_class="false (0)"
compound="C[C@@H](c1ncncc1F)C(O)(Cn1cncn1)c1ccc(F)cc1F (stereo partly drawn)" label_class="false (0)"
compound=CCN(CC)c1cccc(O)c1 label_class="true (1)"
compound=Cc1cn[nH]c1 label_class="false (0)"
compound="COc1ccnc(CS(=O)c2nc3cc(OC(F)F)ccc3[nH]2)c1OC (stereo not drawn)" label_class="false (0)"
compound=CCC1CCCCC1 label_class="false (0)"
compound="CC(C)CC(O)Cc1ccccc1 (stereo not drawn)" label_class="false (0)"
compound=COc1cccc(-c2ccc(/C=C\CN3CCCCCC3)cc2Cl)c1 label_class="true (1)"
compound=COc1ccc(-c2ccc3cc(C(=O)O)ccc3c2)cc1C12CC3CC(CC(C3)C1)C2 label_class="false (0)"
compound=CNCc1cc(F)ccc1Oc1ccc(Cl)c(Cl)c1 label_class="false (0)"
compound=O=C1NCCN1CCN1CCC(c2cn(-c3ccc(F)cc3)c3ccc(Cl)cc23)CC1 label_class="true (1)"
compound=Cc1cc(O)c(C(C)(C)C)cc1C(C)(C)C label_class="false (0)"
compound="CCN(CC)CCCC(C)Nc1ccnc2cc(Cl)ccc12 (stereo not drawn)" label_class="true (1)"
compound=N#CSCSc1nc2ccccc2s1 label_class="false (0)"
compound=CCc1cc(S(=O)(=O)O)c2cc(C(C)C)cccc1-2 label_class="false (0)"
compound=CN(C)CCOc1ccccc1Cc1ccccc1 label_class="false (0)"
compound=CC(=O)N[C@@H](CC(C)C)C(=O)O label_class="false (0)"
compound=COc1cc2nc(Cl)nc(N)c2cc1OC label_class="false (0)"
compound="CCC1(C)C(=O)N(Cl)C(=O)N1Cl (stereo not drawn)" label_class="false (0)"

----------
molecular target: Acetylcholinesterase (Homo sapiens); assay: Acetylcholinesterase (AChE) small molecule antagonists: enzyme-based qHTS assay with human liver microsomes (AID 1347399); conditions: qHTS inhibition; series mostly up to 115 µM; further: nearly all actives have a fitted effect of over 60% in size
Active and inactive are the calls of the source. Calls follow the shape of the full dose curve.
Outcomes: t = active, f = inactive

compound=COc1ccc(OC)c(OC)c1 tested_system="Acetylcholinesterase (Homo sapiens)" label_class=f
compound=Nc1ccc(F)cc1F tested_system="Acetylcholinesterase (Homo sapiens)" label_class=f
compound=CCCCCCCCOCCCN tested_system="Acetylcholinesterase (Homo sapiens)" label_class=f
compound=O=C(O)/C=C/c1ccccc1 tested_system="Acetylcholinesterase (Homo sapiens)" label_class=f
compound="CC(C)[N+](C)(C)CC(O)COc1cccc2ccccc12 (configuration not stated)" tested_system="Acetylcholinesterase (Homo sapiens)" label_class=f
compound=Cc1ccnc(N)c1 tested_system="Acetylcholinesterase (Homo sapiens)" label_class=f
compound=CCC1=C[C@@H]2CN(C1)Cc1c([nH]c3ccccc13)[C@@](C(=O)OC)(c1cc3c(cc1OC)N(C)[C@H]1[C@@](O)(C(=O)OC)[C@H](OC(C)=O)[C@]4(CC)C=CCN5CC[C@]31[C@@H]54)C2 tested_system="Acetylcholinesterase (Homo sapiens)" label_class=f
compound=OCCCC1CCCCC1 tested_system="Acetylcholinesterase (Homo sapiens)" label_class=f
compound=O=C1CCCN1CCO tested_system="Acetylcholinesterase (Homo sapiens)" label_class=f
compound=O=C(O)c1cc(N=Nc2ccc([N+](=O)[O-])cc2)ccc1O tested_system="Acetylcholinesterase (Homo sapiens)" label_class=f
compound=Oc1cccc(O)c1O tested_system="Acetylcholinesterase (Homo sapiens)" label_class=f
compound=O=S(=O)(O)SSS(=O)(=O)O tested_system="Acetylcholinesterase (Homo sapiens)" label_class=t
compound="CC(=O)C1CCCCC1=O (configuration not stated)" tested_system="Acetylcholinesterase (Homo sapiens)" label_class=f
compound=CCCCCO tested_system="Acetylcholinesterase (Homo sapiens)" label_class=f
compound=CCCCCCOc1ccc(N)cc1 tested_system="Acetylcholinesterase (Homo sapiens)" label_class=f
compound=CC(C)CCCO tested_system="Acetylcholinesterase (Homo sapiens)" label_class=f
compound=O=Cc1ccc(F)cc1 tested_system="Acetylcholinesterase (Homo sapiens)" label_class=f
